# study_system: Bifunctional purine biosynthesis protein ATIC (Homo sapiens, UniProt P31939)
# Sequence (P31939 whole entry): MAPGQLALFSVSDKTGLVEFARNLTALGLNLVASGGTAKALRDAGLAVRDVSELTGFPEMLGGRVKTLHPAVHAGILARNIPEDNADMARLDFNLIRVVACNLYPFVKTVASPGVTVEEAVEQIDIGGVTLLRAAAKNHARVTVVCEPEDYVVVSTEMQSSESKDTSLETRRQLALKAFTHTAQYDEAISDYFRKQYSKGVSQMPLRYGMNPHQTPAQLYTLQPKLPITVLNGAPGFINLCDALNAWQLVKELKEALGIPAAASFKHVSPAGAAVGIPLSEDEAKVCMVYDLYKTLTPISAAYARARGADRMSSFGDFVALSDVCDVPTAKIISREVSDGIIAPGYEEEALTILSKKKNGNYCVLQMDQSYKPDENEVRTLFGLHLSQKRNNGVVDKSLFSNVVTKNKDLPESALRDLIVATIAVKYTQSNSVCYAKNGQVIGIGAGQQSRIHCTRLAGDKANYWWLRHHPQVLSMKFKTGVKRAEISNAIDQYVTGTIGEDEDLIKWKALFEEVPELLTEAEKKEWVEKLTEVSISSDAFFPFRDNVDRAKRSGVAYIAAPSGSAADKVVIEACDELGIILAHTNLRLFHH
# measurement_protocol: ChEBML_28408
pIC50: −log10 of the molar value.

| compound | pIC50 |
| --- | --- |
| CC1c2c(nc(N)[nH]c2=O)NCC1CCc1ccc(C(=O)NC(CCC(=O)O)C(=O)O)cc1 (stereo unspecified) | < 4.70 |
